# experimentalSystem: human recombinant 5-HT2A receptor (Homo sapiens)
# Construct: expressed in transfected cells; host or cells: Jump-In HEK cells (membrane preparation)
# Sequence (P28223 whole entry): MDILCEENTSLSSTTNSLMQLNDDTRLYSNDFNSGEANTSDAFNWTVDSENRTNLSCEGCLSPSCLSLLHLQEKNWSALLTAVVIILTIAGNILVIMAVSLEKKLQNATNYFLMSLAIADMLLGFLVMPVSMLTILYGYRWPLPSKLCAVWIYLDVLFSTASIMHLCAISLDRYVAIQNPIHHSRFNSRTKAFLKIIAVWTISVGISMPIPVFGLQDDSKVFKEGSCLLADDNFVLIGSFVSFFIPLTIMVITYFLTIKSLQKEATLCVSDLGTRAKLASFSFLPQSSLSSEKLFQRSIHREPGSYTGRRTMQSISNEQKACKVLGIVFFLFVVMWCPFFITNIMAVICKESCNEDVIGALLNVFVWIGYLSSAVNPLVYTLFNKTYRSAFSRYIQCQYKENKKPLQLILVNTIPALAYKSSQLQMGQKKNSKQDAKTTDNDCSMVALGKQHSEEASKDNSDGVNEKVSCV
# procedureText: Test Example 1-2: 5-HT2A receptor binding inhibition test ([3H]-Ketanserin; non-specific ligand Ketanserin)
# conditions: [3H]-Ketanserin; non-specific binding with 500 µmol/L Ketanserin; room temperature (25°C), 1.5 hours; read-out: h 5-HT2A Ki
measureName: Ki (pM)
// units = pM; emit number, no label

Cc1nc(C)c(-c2cc(Nc3ncc(C(F)(F)F)cc3F)cnc2OCCO)c(C)n1 [Compound I-135] : 1240
Cn1ncc(Br)c1-c1nc(Nc2ccc(C#N)cc2)ncc1OCCO [Compound I-352] : 202
Cn1ncc(Cl)c1-c1cc(Nc2ccc(OCC(F)F)cn2)ncc1OCCO [Compound I-320] : 297
Cc1nc(C)c(-c2nc(Nc3ccc(OC(F)(F)F)cc3)ncc2OCCO)c(C)n1 [Compound I-357] : 635
COCc1nc(C)c(-c2cc(Nc3ncc(OC(F)(F)F)cc3C)ncc2OCCO)c(C)n1 [Compound I-186] : 1750

Lookup: human recombinant 5-HT2A receptor (Homo sapiens) / Ki / Cn1ncc(C#N)c1-c1cc(Nc2ccc(-c3ccc(Cl)cc3)cn2)ncc1OCCO [Compound I-189] : value?
Found: 217

Lookup: human recombinant 5-HT2A receptor (Homo sapiens) / Ki / Cn1ncc(Cl)c1-c1cc(Nc2ncc(OCC(F)(F)F)cc2F)ncc1OCCO [Compound I-322] : value?
Found: 414

Lookup: human recombinant 5-HT2A receptor (Homo sapiens) / Ki / Cc1cnn(C)c1-c1cc(Nc2ncc(Cl)cc2F)ccc1OCCO [Compound I-140] : value?
Found: 148

Lookup: human recombinant 5-HT2A receptor (Homo sapiens) / Ki / COCc1nc(C)c(-c2cc(Nc3ncc(-c4nc(C(F)(F)F)cs4)cc3Cl)ncc2OCCO)c(C)n1 [Compound I-328] : value?
Found: 1100

Lookup: human recombinant 5-HT2A receptor (Homo sapiens) / Ki / Cc1nc(COC(C)C)nc(C)c1-c1cc(Nc2ncc(C(F)(F)F)cc2Cl)ncc1OCCO [Compound I-204] : value?
Found: 2350

Lookup: human recombinant 5-HT2A receptor (Homo sapiens) / Ki / COCc1nc(C)c(-c2cc(Nc3ncc(-c4ccc(OC(F)F)cc4)cc3Cl)ncc2OCCO)c(C)n1 [Compound I-261] : value?
Found: 608

Lookup: human recombinant 5-HT2A receptor (Homo sapiens) / Ki / Cn1ncc(Br)c1-c1cc(Nc2nc(C3CC3)ns2)ccc1OCCO [Compound I-104] : value?
Found: 390

Lookup: human recombinant 5-HT2A receptor (Homo sapiens) / Ki / Cc1cnn(C)c1-c1cc(Nc2ccc(C(F)(F)F)cn2)c(F)cc1OCCO [Compound I-157] : value?
Found: 238
